Tested on: Plasmodium falciparum
MEASUREMENT PROTOCOL: GSK_TCMDC: Inhibition of Plasmodium falciparum Dd2 in whole red blood cells, using parasite LDH activity as an index of growth. Test compounds present at 2uM
Assay type: functional
ATTRIBUTE MEASURED: Inhibition (%)
Numbers only; they are read as %.

Form: compound = Fc1ccc2[nH]c(-c3ccc(-c4ccc(CN5CCC(CCN6CCCCC6)CC5)cc4)s3)nc2c1.O=C(O)C(F)(F)F ; Inhibition = 100

Form: compound = CC(C)c1ccc(NC(=O)c2cccc(CN3CCCN(Cc4cccc(C#N)c4)CC3)c2)cc1.O=C(O)C(F)(F)F ; Inhibition = 15

Form: compound = COc1ccc(NC(=O)CCNc2cc(C)nc(NCc3cccc(C)c3)n2)cc1.O=C(O)C(F)(F)F ; Inhibition = 25

Form: compound = CCCN1CCN(CC(O)CNC(=O)Nc2ccc(Cl)cc2)CC1.O=C(O)C(F)(F)F (stereo not drawn) ; Inhibition = 100

Form: compound = CCCCCOc1c(CCC)cc(Cc2cnc(N)nc2N)cc1CCC ; Inhibition = 0

Form: compound = CC(C)c1ccc(CN2CCC(CNC(=O)c3cc(-c4cccc(Cl)c4)cs3)C2)cc1.O=C(O)C(F)(F)F (stereo not drawn) ; Inhibition = 43

Form: compound = Cc1nc2nc(N)nc(N)c2c(C)c1Cc1ccc(O)cc1.Cl ; Inhibition = 0

Form: compound = COc1ccc(-c2ccc(NC(=O)c3cccc(C#N)c3)cc2)cc1CN(C)C.O=C(O)C(F)(F)F ; Inhibition = 10

Form: compound = COc1ccc(-c2nc3c(NCc4ccccc4)nccc3[nH]2)c(OC)c1 ; Inhibition = 21

Form: compound = Cc1ccc(-c2cc(C(=O)Nc3ccc(S(=O)(=O)N4CCOCC4)cc3)[nH]n2)c(O)c1C ; Inhibition = 45

Form: compound = O=C(/C=C/c1ccc(-c2nc3ccc(Cl)cc3[nH]2)cc1)NCc1cccc(F)c1 ; Inhibition = 68

Form: compound = Cc1nc(N)nc(N)c1OCCCOc1ccccc1Br.Cl ; Inhibition = 96

Form: compound = COc1ccc2nccc([C@@H](O)CN3CCC(NCCOc4cccc(C(F)(F)F)c4Cl)CC3)c2c1.O=C(O)C(=O)O ; Inhibition = 98

Form: compound = O=C(Nc1nc(-c2ccccn2)cs1)c1ccc(S(=O)(=O)N2CCc3ccccc32)cc1 ; Inhibition = 15

Form: compound = O=c1cc(NCCCNCc2cc(C(F)(F)F)ccc2F)[nH]c2ccccc12 ; Inhibition = 43

Form: compound = COc1ccc(NC(=O)Nc2cccc(-c3ccc(-c4nc5cc(C(F)(F)F)ccc5[nH]4)cc3)c2)cc1 ; Inhibition = 29

Form: compound = Cc1ccc(Nc2nccc(Nc3ccc4c(C)n[nH]c4c3)n2)cc1F.Cl ; Inhibition = 1

Form: compound = CNC(=O)Cc1ccc(C(=O)Nc2cccc(-c3cccc(-c4nc5cc(C(F)(F)F)ccc5[nH]4)c3)c2)cc1 ; Inhibition = 37

Form: compound = CN(C)CCOc1cc(NC(=O)Nc2ccc(Oc3ccccc3)cc2)ccc1I.Cl ; Inhibition = 4

Form: compound = Br.Oc1ccc(CCNCCCCCCNCCc2ccc(Cl)cc2)c(Cl)c1O ; Inhibition = 30

Form: compound = Cl.N=C(NCCCCC1CCCCC1)c1cccc(C(=N)NCCCCC2CCCCC2)n1 ; Inhibition = 19

Form: compound = Cc1cccc2nc(-c3cccc(-c4cccc(NC(=O)c5ccc(C(N)=O)cc5)c4)c3)[nH]c12 ; Inhibition = 34

Form: compound = CCCCCCCN1CCC(CCNc2ccnc3ccc(OC)cc23)CC1 ; Inhibition = 86

Form: compound = CC(=O)Nc1ccc(CN2CCCN(c3cc(NC(=O)c4cccc(C)c4)ccn3)CC2)cc1.O=C(O)C(F)(F)F ; Inhibition = 10

Form: compound = Cc1ccc(CN2CCC(Oc3cccc(NC(=O)c4ccc(C(F)(F)F)cc4)c3)CC2)cc1.O=C(O)C(F)(F)F ; Inhibition = 15

Form: compound = CN1CCC(c2ccc(NC(=O)c3ccc(-c4cccc(C(F)(F)F)c4)o3)cc2)CC1 ; Inhibition = 23

Form: compound = COCCN1CCC(C(=O)NCC(C)(C)c2nc(-c3ccc(Br)c(O)c3)c(-c3ccncc3)[nH]2)CC1.Cl ; Inhibition = 6

Form: compound = COc1ccc2c(NN=Cc3ccncc3)ccnc2c1 ; Inhibition = 6

Form: compound = CC(Cc1ccc(C(=O)OC(c2ccccc2)c2ccccc2)cc1)NCC(O)c1ccccc1.Cl (stereo not drawn) ; Inhibition = 98

Form: compound = CN(C)c1nc(NN=Cc2cc(Cl)ccc2O)nc(Nc2ccc(F)cc2)n1 ; Inhibition = 46

Form: compound = CCOC(=O)N1CCN(C(=O)Nc2ccc(Cl)cc2)CC1 ; Inhibition = 0

Form: compound = FC(F)(F)c1ccc2[nH]c(-c3ccc(-c4ccc(CNCCN5CCNCC5)cc4)s3)nc2c1.O=C(O)C(F)(F)F ; Inhibition = 79

Form: compound = CC(C)COc1ccc(Cl)cc1Nc1nc(-c2nc3ccccc3[nH]2)cs1.Cl ; Inhibition = 29

Form: compound = C[C@@H](CNc1ccnc(Nc2ccc3[nH]c(=O)[nH]c3c2)n1)c1ccccc1 ; Inhibition = 1

Form: compound = CC1(C)N=C(N)N=C(NOCc2ccc(Cl)c(Cl)c2)N1 ; Inhibition = 27

Form: compound = COCCCn1c(=N)c(C(=O)NCCc2ccc(OC)cc2)cc2c(=O)n3cccc(C)c3nc21 ; Inhibition = 33

Form: compound = COC(=O)c1ccc2nc(-c3ccc(/C=C/C(=O)NCc4ccc(Cl)c(Cl)c4)cc3)[nH]c2c1 ; Inhibition = 3

Form: compound = COc1ccc(CN2CCCN(Cc3cccc(NC(=O)c4ccc(Cl)c(Cl)c4)c3)CC2)cc1.O=C(O)C(F)(F)F ; Inhibition = 19

---

System: Plasmodium falciparum
MEASUREMENT PROTOCOL: GSK_TCMDC: Inhibition of Plasmodium falciparum Dd2 in whole red blood cells, using parasite LDH activity as an index of growth. Test compounds present at 2uM
Type: functional
Would you kindly list Inhibition for each of these compounds?

Form: item CC(C)CCNCC(O)Cn1c2ccc(Cl)cc2c2cc(Cl)ccc21 (stereo not drawn) ; test system Plasmodium falciparum; Inhibition: 99%

Form: item COc1ccc(-c2cc(C(=O)N3CCc4ccccc43)c3ccccc3n2)cc1OC ; test system Plasmodium falciparum; Inhibition: 48%

Form: item Cc1ccc(NC(=O)N2CCN(CCCCCNC(=O)/C=C/c3ccc(Cl)c(Cl)c3)CC2)cc1C ; test system Plasmodium falciparum; Inhibition: 0%

Form: item COC(=O)c1cccc(CNCc2ccc(-c3ccc(-c4nc5cc(C(F)(F)F)ccc5[nH]4)cc3)cc2)c1.O=C(O)C(F)(F)F ; test system Plasmodium falciparum; Inhibition: 98%

Form: item Cc1ccccc1C1CCN(C2CCC(NC(=O)/C=C/c3ccc(OC(F)(F)F)cc3)CC2)CC1 (stereo not drawn) ; test system Plasmodium falciparum; Inhibition: 67%

Form: item COc1cc(Nc2nc(N)c3cc(OC)c(OC)cc3n2)cc(OC)c1.Cl ; test system Plasmodium falciparum; Inhibition: 100%

Form: item COC(=O)C(c1ccc(NC(=O)[C@H](CC(C)C)NC(=O)OC(C)(C)C)cc1)c1ccc(NC(=O)[C@H](CC(C)C)NC(=O)OC(C)(C)C)cc1 ; test system Plasmodium falciparum; Inhibition: 42%

Form: item O=C(O)C(F)(F)F.c1cc(CNC2CCCC2)cc(-c2ccc(CNc3ccc4ncccc4c3)cc2)c1 ; test system Plasmodium falciparum; Inhibition: 24%

Form: item Cl.O=c1cc(NCCCNCc2sc(Br)c(Br)c2Br)[nH]c2ccccc12 ; test system Plasmodium falciparum; Inhibition: 38%

Form: item CN(CC(=O)Nc1cc(C(F)(F)F)ccc1-n1cncn1)Cc1ccc2ccccc2c1 ; test system Plasmodium falciparum; Inhibition: 99%

Form: item Cc1cc(=NN=Cc2ccc(Cl)cc2)c2ccc(F)cc2[nH]1 ; test system Plasmodium falciparum; Inhibition: 87%

Form: item O=C(CSc1nc(-c2ccccc2Cl)ns1)Nc1cccc(F)c1 ; test system Plasmodium falciparum; Inhibition: 81%

Form: item Cc1cccc(Nc2nc(NCCCCN)nc3cc[nH]c(=O)c23)c1.O=C(O)C(F)(F)F ; test system Plasmodium falciparum; Inhibition: 97%

Form: item Cn1c(-c2ccccc2)cc2c3c(N)nc(N)nc3ccc21 ; test system Plasmodium falciparum; Inhibition: 30%

Form: item CN(C)CCNCc1nc(-c2ccc3c(Nc4ccc(Cl)cc4F)ccnc3c2)cs1 ; test system Plasmodium falciparum; Inhibition: 100%

Form: item Nc1cc(/C=C/c2ccc([N+](=O)[O-])s2)nc2ccccc12 ; test system Plasmodium falciparum; Inhibition: 48%

Form: item Cc1ccc(Nc2nccc(NCC(O)c3cccc(F)c3)n2)cc1 (stereo not drawn) ; test system Plasmodium falciparum; Inhibition: 26%

Form: item Cl.c1ccc(Oc2cccc(Nc3ccnc4ccccc34)c2)cc1 ; test system Plasmodium falciparum; Inhibition: 14%

Form: item FC(F)(F)c1ccc(-c2cncc(-c3ccc(C(F)(F)F)cc3)n2)cc1 ; test system Plasmodium falciparum; Inhibition: 97%

Form: item C=C(C)Cn1cc(C2CCN(CCN3CCC(CNC(=O)c4ccc(-c5ccc(C#N)cc5)cc4)CC3)CC2)c2ccccc21 ; test system Plasmodium falciparum; Inhibition: 94%

Form: item Cc1cc(-c2ccc3c(c2)CCN(CCC2CCC(NC(=O)/C=C/c4ccc(F)cc4)CC2)CC3)on1.Cl (stereo not drawn) ; test system Plasmodium falciparum; Inhibition: 47%

Form: item CC(c1cccc(S(=O)(=O)NCc2cccc(C(F)(F)F)c2)c1)N1CCC(N2CCCCC2)CC1 (stereo not drawn) ; test system Plasmodium falciparum; Inhibition: 35%

Form: item CCN1CCN(c2cc(C)c3cc(NC(=O)c4cccc(OC)c4)ccc3n2)CC1 ; test system Plasmodium falciparum; Inhibition: 15%

Form: item CN(C)CCNC(=O)c1cc2c(-c3ccc(Cl)cc3)nn(C)c2s1 ; test system Plasmodium falciparum; Inhibition: 81%

Form: item Br.Cc1ccc2ccccc2c1CCCON1C(=N)N=C(N)NC1(C)C ; test system Plasmodium falciparum; Inhibition: 97%

Form: item CC1CCN(C(=O)CSc2nc(-c3ccc(C(C)C)cc3)no2)CC1 ; test system Plasmodium falciparum; Inhibition: 84%

Form: item Cc1ccc2[nH]c(-c3cc(-c4ccc(CO)cc4)cnc3N)nc2c1.O=C(O)C(F)(F)F ; test system Plasmodium falciparum; Inhibition: 6%

Form: item CC(=O)Nc1ccc(C(=O)Nc2cccc(-c3ccc(-c4nc5cc(C(F)(F)F)ccc5[nH]4)cc3)c2)cn1 ; test system Plasmodium falciparum; Inhibition: 100%

Form: item Nc1cccc(CNCc2ccc(-c3cccc(-c4nc5cc(F)ccc5[nH]4)c3)cc2)c1.O=C(O)C(F)(F)F ; test system Plasmodium falciparum; Inhibition: 94%

Form: item Cc1ccccc1C1CCN(C2CCC(NC(=O)/C=C/c3ccc4c(c3)OC(F)(F)O4)CC2)CC1 (stereo not drawn) ; test system Plasmodium falciparum; Inhibition: 39%

Form: item COc1ccc(CCNC(=O)c2cc3c(=O)n4cccc(C)c4nc3n(C)c2=N)cc1 ; test system Plasmodium falciparum; Inhibition: 99%

Form: item Cc1cc(N[C@@H](Cc2ccccc2)C(=O)NCCOc2ccccc2)nc(NCCc2cccs2)n1.O=C(O)C(F)(F)F ; test system Plasmodium falciparum; Inhibition: 32%

Form: item COc1ccc(-c2cccc(NC(=O)c3ccc(C#N)cc3)c2)cc1CN1CCCC1.O=C(O)C(F)(F)F ; test system Plasmodium falciparum; Inhibition: 15%

Form: item CCCCC(=O)NC(c1cccs1)c1cc(Cl)c2cccnc2c1O (stereo not drawn) ; test system Plasmodium falciparum; Inhibition: 90%

Form: item CC(CN(C)C)C(=O)Nc1ccc(-c2ccc(-c3nc4ccccc4[nH]3)cc2)cc1 (stereo not drawn) ; test system Plasmodium falciparum; Inhibition: 83%

Form: item CCCc1ccc(N2C(N)=NC(N)=NC2(C)C)cc1.Cl ; test system Plasmodium falciparum; Inhibition: 0%

Form: item Cc1cc2[nH]c(-c3ccc(C(=O)NCCCN4CCN(c5cccc(Cl)c5)CC4)cc3F)nc2cc1Cl ; test system Plasmodium falciparum; Inhibition: 79%

Form: item O=C(CSc1nc2ccccc2c(=O)n1C1CC1)Nc1cc(C(F)(F)F)ccc1Cl ; test system Plasmodium falciparum; Inhibition: 96%
